// provenance: ChEMBL document CHEMBL1961873

tested-system: Mitogen-activated protein kinase 13 (Homo sapiens) (UniProt O15264);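 further: mean inhibition of p38delta, screened as part of the GSK PKIS kinase inhibitor set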
Sequence (O15264 whole entry): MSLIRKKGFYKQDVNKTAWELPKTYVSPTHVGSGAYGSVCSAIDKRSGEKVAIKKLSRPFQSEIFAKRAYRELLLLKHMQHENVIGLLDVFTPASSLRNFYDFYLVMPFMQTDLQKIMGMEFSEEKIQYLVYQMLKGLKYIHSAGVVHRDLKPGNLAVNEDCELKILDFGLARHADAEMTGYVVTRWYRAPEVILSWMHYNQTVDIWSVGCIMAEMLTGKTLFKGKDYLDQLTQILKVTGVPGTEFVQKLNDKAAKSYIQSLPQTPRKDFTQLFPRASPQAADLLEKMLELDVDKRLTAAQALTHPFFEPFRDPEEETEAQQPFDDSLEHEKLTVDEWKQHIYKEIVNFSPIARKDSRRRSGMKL
condition-label: at 1 µM
metric-name: inhibition (%)
Express it in %; write the number only.

Known inhibition results, listed for orientation:
Report inhibition for "Cc1nnc(-c2ccc(C)c(-c3ccc(C(=O)Nc4cccc(C#N)c4)cc3)c2)o1" please. 1.58

Moving on to "CCn1c(-c2nonc2N)nc2c(C#CC(C)(C)O)nc(CN3CCCC3)cc21" -1.59

Moving on to the next molecule: "NS(=O)(=O)c1cccc(-c2ccc3c(NC(=O)C4CC4)n[nH]c3c2)c1" -0.14

Continuing:
Would you kindly share the measured inhibition for "CCn1c(-c2nonc2N)nc2cncc(C(=O)N3CCNCC3)c21" ? 7.35

How about this molecule: "NS(=O)(=O)c1ccc(N/N=C2\C(=O)Nc3ccc(C(=O)NCCc4c[nH]cn4)cc32)cc1" 4.35

Do the same for "Cc1nn(C)c2cc(N(C)c3ccnc(Nc4cccc(S(N)(=O)=O)c4)n3)ccc12" please 4.16

Query "COc1cc(C)c(NC(=O)CN(C)C)cc1Nc1nc(Nc2cccc(F)c2C(N)=O)c2cc[nH]c2n1" next 1.87

====

tested-system: Cytoplasmic tyrosine-protein kinase BMX (Homo sapiens) (UniProt P51813)
Sequence (P51813 whole entry): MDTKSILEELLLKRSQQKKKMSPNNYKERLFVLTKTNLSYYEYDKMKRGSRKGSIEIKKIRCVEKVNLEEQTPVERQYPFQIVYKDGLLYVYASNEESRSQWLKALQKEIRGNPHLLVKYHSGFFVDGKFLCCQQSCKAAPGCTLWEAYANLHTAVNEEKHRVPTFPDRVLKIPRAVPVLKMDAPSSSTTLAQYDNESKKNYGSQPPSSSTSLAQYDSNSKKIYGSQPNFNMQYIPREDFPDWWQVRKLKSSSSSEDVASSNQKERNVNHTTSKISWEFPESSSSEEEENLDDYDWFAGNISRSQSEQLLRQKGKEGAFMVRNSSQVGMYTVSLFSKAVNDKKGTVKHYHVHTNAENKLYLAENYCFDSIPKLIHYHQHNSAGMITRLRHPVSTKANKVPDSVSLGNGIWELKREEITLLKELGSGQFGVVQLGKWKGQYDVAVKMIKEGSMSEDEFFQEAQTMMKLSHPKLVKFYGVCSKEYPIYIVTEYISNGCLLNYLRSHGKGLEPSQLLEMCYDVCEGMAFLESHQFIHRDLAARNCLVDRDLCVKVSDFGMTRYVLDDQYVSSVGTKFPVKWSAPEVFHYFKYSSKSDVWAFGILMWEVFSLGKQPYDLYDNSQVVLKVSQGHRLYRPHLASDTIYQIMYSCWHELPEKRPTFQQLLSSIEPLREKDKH
condition-label: at 0.1 µM
Description: GSK_PKIS: BMX mean inhibition at 0.1 uM [Nanosyn]
metric-name: inhibition (%)
Give the value in % but do not write % after it.

Form entry - test system: Cytoplasmic tyrosine-protein kinase BMX (Homo sapiens) (UniProt P51813); read-out: inhibition; compound: "COc1cc2ncn(-c3cc(OCc4ccccc4C(F)(F)F)c(C(N)=O)s3)c2cc1OC" 4.67

How about "Nc1ncnc2occ(-c3ccc(NC(=O)Nc4cccc(C(F)(F)F)c4)cc3)c12" ? 20.4

Then this compound: "CN(C)c1cc2c(Nc3ccc4nc(Cc5ccccc5)[nH]c4c3)ncnc2cn1" 1.17

Entry to check: "O=C(Nc1n[nH]c2nc(-c3ccco3)c(Br)cc12)C1CC1" 7.33

Try this compound next: "O=C1NC(=O)C(c2ccccc2Cl)=C1Nc1cccc(O)c1" 2.35

What about this compound? CC1=C(C(=O)Nc2ccc3[nH]ncc3c2)C(c2ccc(F)cc2)NC(=O)N1 (stereo not given) -3.23

Same question for "CCn1c(-c2nonc2N)nc2cnc(Oc3cccc(NC(=O)c4ccc(OCCN5CCOCC5)cc4)c3)cc21" please. 0.58

Again, but for "Cc1cccc(-c2n[nH]cc2-c2ccc3ncccc3n2)n1" 3

Further cases:
# value lookup — system Cytoplasmic tyrosine-protein kinase BMX (Homo sapiens) (UniProt P51813), readout inhibition, item "CCn1c(-c2nonc2N)nc2cncc(C(=O)N3CC[C@H](N)C3)c21" 2.23

Entry CC1=C(C(=O)Nc2ccc3[nH]ncc3c2)C(c2ccc3ccccc3c2)CC(=O)N1 (stereo not given) please -1.63

====

tested-system: Vascular endothelial growth factor receptor 1 (Homo sapiens) (UniProt P17948);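 further: values are mean percent inhibition of FLT1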
Sequence (P17948 whole entry): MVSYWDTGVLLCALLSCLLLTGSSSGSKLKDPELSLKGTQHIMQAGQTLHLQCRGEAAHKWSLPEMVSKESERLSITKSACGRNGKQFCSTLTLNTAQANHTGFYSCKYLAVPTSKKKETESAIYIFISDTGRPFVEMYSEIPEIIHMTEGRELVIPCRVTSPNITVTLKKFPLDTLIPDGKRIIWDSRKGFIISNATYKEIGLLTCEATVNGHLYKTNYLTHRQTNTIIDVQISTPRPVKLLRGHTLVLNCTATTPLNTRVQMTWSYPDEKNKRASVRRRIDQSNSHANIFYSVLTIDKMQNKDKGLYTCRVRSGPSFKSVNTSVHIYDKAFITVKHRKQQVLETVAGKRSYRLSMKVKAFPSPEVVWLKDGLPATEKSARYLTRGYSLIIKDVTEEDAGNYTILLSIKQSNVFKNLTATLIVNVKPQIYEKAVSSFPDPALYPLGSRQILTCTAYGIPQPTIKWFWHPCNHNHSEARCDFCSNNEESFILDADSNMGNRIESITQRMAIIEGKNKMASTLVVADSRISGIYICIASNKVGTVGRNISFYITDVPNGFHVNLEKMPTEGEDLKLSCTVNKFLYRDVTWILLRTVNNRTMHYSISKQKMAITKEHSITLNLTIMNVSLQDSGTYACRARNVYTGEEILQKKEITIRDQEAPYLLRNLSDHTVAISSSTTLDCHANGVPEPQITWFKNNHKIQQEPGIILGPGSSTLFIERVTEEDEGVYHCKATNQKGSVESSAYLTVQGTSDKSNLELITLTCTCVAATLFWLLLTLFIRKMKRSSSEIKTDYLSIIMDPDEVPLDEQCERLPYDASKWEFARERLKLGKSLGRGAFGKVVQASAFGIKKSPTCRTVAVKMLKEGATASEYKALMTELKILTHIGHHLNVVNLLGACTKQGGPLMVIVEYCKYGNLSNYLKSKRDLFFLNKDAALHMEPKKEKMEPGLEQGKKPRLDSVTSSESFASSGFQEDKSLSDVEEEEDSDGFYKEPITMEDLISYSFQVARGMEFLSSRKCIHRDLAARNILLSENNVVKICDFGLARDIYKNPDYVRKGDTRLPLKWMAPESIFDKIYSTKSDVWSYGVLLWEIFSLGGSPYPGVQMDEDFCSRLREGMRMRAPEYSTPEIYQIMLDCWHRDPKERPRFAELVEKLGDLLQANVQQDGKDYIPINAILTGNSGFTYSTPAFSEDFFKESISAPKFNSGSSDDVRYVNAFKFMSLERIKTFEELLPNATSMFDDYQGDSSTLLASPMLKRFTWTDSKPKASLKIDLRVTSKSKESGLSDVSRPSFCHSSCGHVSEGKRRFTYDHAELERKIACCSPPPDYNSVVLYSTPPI
condition-label: at 0.1 µM
Each item that follows carries a reported inhibition.
Write the value in % as a bare number.

A selection of reference data follows.
Recall the recorded inhibition for "O=C1NC(=O)C(c2ccc(Cl)cc2)=C1Nc1ccc(Cl)c(C(=O)O)c1" with Vascular endothelial growth factor receptor 1 (Homo sapiens) (UniProt P17948) and state it. 0.79

Same thing, different molecule: "COc1ccc(-c2ccncc2)cc1C(N)=O" 2.23

Please answer likewise for "COc1cc(C)c(NC(=O)CN(C)C)cc1Nc1nc(Nc2cccc(F)c2C(N)=O)c2cc[nH]c2n1" 2.27

Same question, "Fc1cccc(COc2ccc(Nc3ncnc4cc(-c5ccc[nH]5)sc34)cc2Cl)c1" this time -0.98

Same again, this time with "Cc1cccc(-c2n[nH]cc2-c2ccc3ncccc3n2)n1" 3.33

Param item: "CN(C)c1cc2c(Nc3ccc4nc(Cc5ccccc5)[nH]c4c3)ncnc2cn1" 3.21

Further cases:
Query inhibition on Vascular endothelial growth factor receptor 1 (Homo sapiens) (UniProt P17948) for "CCn1c(-c2nonc2N)nc2c(C#CC(C)(C)O)nc(CN3CCCC3)cc21" -1.48

What do we get for "COc1ccccc1Nc1ncc(-c2ccccc2)o1" ? 4.3

Now consider "CCn1c(-c2nonc2N)nc2cnc(Oc3cccc(NC(=O)c4ccc(OCCN5CCOCC5)cc4)c3)cc21" . 0.64

====

tested-system: Serine/threonine-protein kinase DCLK2 (Homo sapiens);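 further: each value is a mean percent inhibition of DCLK2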
Sequence (whole entry): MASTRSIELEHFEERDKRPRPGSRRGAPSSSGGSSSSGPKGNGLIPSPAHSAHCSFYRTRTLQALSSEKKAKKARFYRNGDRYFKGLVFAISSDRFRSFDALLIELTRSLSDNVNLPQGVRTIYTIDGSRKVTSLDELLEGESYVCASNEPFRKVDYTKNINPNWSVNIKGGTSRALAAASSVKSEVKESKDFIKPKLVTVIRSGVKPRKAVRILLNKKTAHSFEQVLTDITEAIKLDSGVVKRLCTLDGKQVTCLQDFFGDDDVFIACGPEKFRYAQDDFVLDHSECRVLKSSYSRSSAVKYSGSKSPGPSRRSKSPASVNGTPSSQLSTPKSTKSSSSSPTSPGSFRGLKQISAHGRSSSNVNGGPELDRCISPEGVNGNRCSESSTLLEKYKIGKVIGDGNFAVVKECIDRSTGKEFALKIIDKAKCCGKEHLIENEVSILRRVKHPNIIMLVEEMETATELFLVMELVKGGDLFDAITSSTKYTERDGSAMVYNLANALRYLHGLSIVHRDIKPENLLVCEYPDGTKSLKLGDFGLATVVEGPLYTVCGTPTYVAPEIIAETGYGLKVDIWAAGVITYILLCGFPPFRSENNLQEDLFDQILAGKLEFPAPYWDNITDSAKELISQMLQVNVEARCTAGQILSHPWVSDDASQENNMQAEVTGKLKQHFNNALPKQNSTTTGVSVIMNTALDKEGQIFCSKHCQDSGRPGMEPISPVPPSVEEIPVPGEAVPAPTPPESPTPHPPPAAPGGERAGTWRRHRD
condition-label: at 1 µM
metric-name: inhibition (%)
Return type: number; implicit unit %.

Please review the entries below; each comes with its answer.
Find the recorded inhibition belonging to "CCCN1CCC=C(c2ccc(Nc3nc(Nc4ccccc4C(N)=O)c4cc[nH]c4n3)c(C)c2)C1" and report it. 3.15

Can you handle "CS(=O)(=O)CCNCc1ccc(-c2ccc3ncnc(Nc4ccc(OCc5ccccc5)c(Cl)c4)c3c2)o1" next? 3.26

Ok, now "COc1cc(C=NNc2ncnc3c2cnn3-c2ccccc2)ccc1O" -4.27

Another compound to check: CC1=C(C(=O)Nc2ccc3[nH]ncc3c2)C(c2ccc(F)cc2)NC(=O)N1 (stereo unspecified) -0.03

Would you kindly repeat that for "CCn1c(-c2nonc2N)nc2cncc(C(=O)N3CCNCC3)c21" ? 1.96

What do you have for "Nc1ncnc2occ(-c3ccc(NC(=O)Nc4cccc(C(F)(F)F)c4)cc3)c12" ? 1.61

Continuing:
If you can, please state the reported inhibition value of "CCN1CCC(CC(=O)Nc2n[nH]c3nc(-c4cccs4)c(Br)cc23)CC1" . 0.11

Would you kindly repeat that for "CCc1cccc(NC(=O)Nc2ccc(Oc3ccc4nc(NC(=O)OC)[nH]c4c3)cc2)c1" ? 1.42

====

tested-system: MAP/microtubule affinity-regulating kinase 4 (Homo sapiens);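 further: values are averaged percent inhibition of MARK4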
Sequence (whole entry): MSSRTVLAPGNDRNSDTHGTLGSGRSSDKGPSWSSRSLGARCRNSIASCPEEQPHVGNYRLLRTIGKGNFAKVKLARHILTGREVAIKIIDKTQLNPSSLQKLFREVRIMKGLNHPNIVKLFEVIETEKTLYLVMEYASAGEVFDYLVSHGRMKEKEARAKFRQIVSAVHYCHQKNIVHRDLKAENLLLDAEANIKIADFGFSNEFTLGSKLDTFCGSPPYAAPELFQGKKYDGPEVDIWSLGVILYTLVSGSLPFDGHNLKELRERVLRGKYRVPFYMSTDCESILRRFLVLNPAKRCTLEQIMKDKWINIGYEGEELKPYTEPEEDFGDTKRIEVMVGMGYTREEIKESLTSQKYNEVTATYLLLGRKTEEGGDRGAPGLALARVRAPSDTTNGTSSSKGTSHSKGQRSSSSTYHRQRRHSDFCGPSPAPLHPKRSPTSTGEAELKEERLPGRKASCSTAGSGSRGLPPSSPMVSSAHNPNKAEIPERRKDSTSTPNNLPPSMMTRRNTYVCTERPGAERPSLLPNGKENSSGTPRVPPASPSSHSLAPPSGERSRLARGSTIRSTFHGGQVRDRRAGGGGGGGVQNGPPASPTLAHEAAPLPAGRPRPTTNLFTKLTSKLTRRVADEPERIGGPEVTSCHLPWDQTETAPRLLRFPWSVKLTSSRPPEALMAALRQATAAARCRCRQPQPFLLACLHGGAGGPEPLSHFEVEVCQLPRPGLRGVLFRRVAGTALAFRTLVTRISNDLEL
condition-label: at 0.1 µM
metric-name: inhibition (%)
Lab book: enter the figure in %, no units written.

Solved cases (8 shown):
Endpoint output: inhibition of "[O-][S+]1CCN(Cc2ccc(-c3ccc4ncnc(Nc5ccc(OCc6ccccc6)c(F)c5)c4c3)o2)CC1" . Value? 0.67

// repeat for "CC(C)=Cc1cccc2c1/C(=N/Nc1ccc(S(N)(=O)=O)cc1)C(=O)N2" and report 1.89

Repeat with "Cc1ccc(C(=O)NC2CCCCC2)cc1-c1ccc(C(=O)NCC2CC2)cc1" 1.51

Now the compound "NS(=O)(=O)c1ccc(N/N=C2\C(=O)Nc3ccc(C(=O)NCCc4c[nH]cn4)cc32)cc1" 11.8

Consider next the compound "Fc1cccc(COc2ccc(Nc3ncnc4sc(-c5cccs5)cc34)cc2Cl)c1" in the same way. 0.59

Then what about the compound "COc1ccc(-c2nn3ncccc3c2-c2ccnc(Nc3ccc(Cl)c(C(F)(F)F)c3)n2)cc1" ? 0.48

Please answer likewise for "O=C1NC(=O)C(c2ccc(Cl)cc2)=C1Nc1ccc(Cl)c(C(=O)O)c1" -0.05

Next: "NS(=O)(=O)c1cccc(-c2ccc3c(NC(=O)C4CC4)n[nH]c3c2)c1" 1.62

New cases:
Need inhibition, item "Cc1cc(O)cc(C)c1/C=C/c1cncc(-c2nn[nH]n2)c1" 2.37
